Consider the following compounds; for each one, report its RAM network inhibition.
# assay-comment: RAM signaling pathway blockade in yeast – S. cerevisiae, Pdr1DBD-CYC8 efflux-inhibited sensitized strain, primary screen (AID 1298);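 further: 0% = DMSO untreated cells without growth and 100% = 10 µM 1-NA-PP1 full growth; higher means more yeast growth rescued from 5-FOA killing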
# assay-conditions: S. cerevisiae cbk1-as DSE1-URA3 strain, 5-FOA growth OD615, 2 d; at 50 µM; active compounds read high
The source made the active and inactive calls.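 How the source made its calls: active means RAM network inhibition above 8.4% in each of two replicates, 3 SD over the compound average; inconclusive means above 8.4% inhibition in only one replicate; inactive means 8.4% inhibition or less in each replicate.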

Answered cases to consult:
{"compound": "O=C(CN1CC(c2ccccc2)CC1=O)Nc1cccc(F)c1 (stereo unspecified)", "meas-value": "4.67% (inactive)"}
{"compound": "C[C@H]1CCC[C@@H](O)CCC/C=C/c2cc(O)cc(O)c2C(=O)O1", "meas-value": "1.97% (inactive)"}
{"compound": "O=C(CN1CC(c2ccccc2)CC1=O)Nc1ccccc1 (stereo unspecified)", "meas-value": "4.01% (inactive)"}

Kindly give each listed record's RAM network inhibition.
1. Cc1cccc(-n2c(-c3ccco3)nc3ccccc3c2=O)n1
2. Cc1ccc2cccc(OC(=O)N(C)c3ccccc3)c2n1
3. CCc1ccc(OCCCN=C(C)c2c(O)n(C)c(=O)n(C)c2=O)cc1
4. COC(=O)C(O)(c1ccc(N(C)S(=O)(=O)c2ccccc2)cc1)C(F)(F)F (stereo unspecified)
5. COc1cc(CC2C(=O)N(C)C(=O)N(C)C2=O)ccc1OCc1ccccc1
6. O=C(O)C1CSC(c2cccnc2)N1 (stereo unspecified)
7. O=C(CN1CC(c2ccccc2)CC1=O)NCc1ccc(F)cc1 (stereo unspecified)

Result:
1. 0.8% (inactive)
2. 1.8% (inactive)
3. -0.72% (inactive)
4. 0.9% (inactive)
5. 5.72% (inactive)
6. 2.35% (inactive)
7. -0.21% (inactive)

Ask: Bench note: what RAM network inhibition did C=C(C)c1cccc(C(C)(C)NC(=O)NC2CN3CCC2CC3)c1 (stereo unspecified) show?
Result: 0.82% (inactive)
